target-of-assay: purified human BChE (Homo sapiens)
Construct: possibly also a gift of Dr Florian Nachon (the sentence is ambiguous)
Sequence (P06276 29-602): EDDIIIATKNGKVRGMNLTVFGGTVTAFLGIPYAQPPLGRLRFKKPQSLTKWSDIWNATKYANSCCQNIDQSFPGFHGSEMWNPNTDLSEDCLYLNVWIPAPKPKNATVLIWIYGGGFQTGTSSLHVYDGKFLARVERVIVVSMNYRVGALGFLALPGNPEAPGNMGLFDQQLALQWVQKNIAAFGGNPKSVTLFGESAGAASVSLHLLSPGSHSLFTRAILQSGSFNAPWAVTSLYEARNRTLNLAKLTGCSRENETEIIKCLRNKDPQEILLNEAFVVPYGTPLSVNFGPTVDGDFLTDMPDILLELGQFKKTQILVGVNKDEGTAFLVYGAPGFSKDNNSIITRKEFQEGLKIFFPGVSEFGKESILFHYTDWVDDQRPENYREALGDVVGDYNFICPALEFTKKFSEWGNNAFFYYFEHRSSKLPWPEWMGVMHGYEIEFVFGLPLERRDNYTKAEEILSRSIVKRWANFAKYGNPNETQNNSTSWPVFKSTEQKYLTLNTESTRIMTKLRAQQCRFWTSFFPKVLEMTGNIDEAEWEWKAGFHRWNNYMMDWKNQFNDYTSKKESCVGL
assay-method-text: biochemical
Format: biochemical
assay-context: logarithm of Ki in µM, BChE; dependent variable of the QSAR model; read-out: Y Measured 2 log(ki)Bche, log (Ki/µM BChE) (converted)
Sorting guide: entries reporting Ki beneath 2 µM go in the satisfied pile, the rest go in the not satisfied pile.

[
  {
    "test-smiles": "Clc1ccc2c(NCCNCC34CC5CC(CC(C5)C3)C4)ccnc2c1",
    "target-of-assay": "purified human BChE (Homo sapiens)",
    "class-label": "not satisfied"
  },
  {
    "test-smiles": "Clc1ccc2c(N3CCN(CCC45CC6CC(CC(C6)C4)C5)CC3)ccnc2c1",
    "target-of-assay": "purified human BChE (Homo sapiens)",
    "class-label": "not satisfied"
  },
  {
    "test-smiles": "Clc1ccc2c(Nc3cccc(NCC45CC6CC(CC(C6)C4)C5)c3)ccnc2c1",
    "target-of-assay": "purified human BChE (Homo sapiens)",
    "class-label": "not satisfied"
  },
  {
    "test-smiles": "Clc1ccc2c(Nc3cccc4c(NCCC56CC7CC(CC(C7)C5)C6)cccc34)ccnc2c1",
    "target-of-assay": "purified human BChE (Homo sapiens)",
    "class-label": "not satisfied"
  },
  {
    "test-smiles": "Clc1ccc2c(NCCCCCCCCNCC34CC5CC(CC(C5)C3)C4)ccnc2c1",
    "target-of-assay": "purified human BChE (Homo sapiens)",
    "class-label": "satisfied"
  },
  {
    "test-smiles": "Clc1ccc2c(Nc3ccc(NCC45CC6CC(CC(C6)C4)C5)cc3)ccnc2c1",
    "target-of-assay": "purified human BChE (Homo sapiens)",
    "class-label": "not satisfied"
  }
]

###

target-of-assay: recombinant human AChE (Homo sapiens, UniProt P22303)
Construct: gift of Dr Florian Nachon (Armed Forces Biomedical Research Institute, Brétigny-sur-Orge, France)
Sequence (P22303 32-614): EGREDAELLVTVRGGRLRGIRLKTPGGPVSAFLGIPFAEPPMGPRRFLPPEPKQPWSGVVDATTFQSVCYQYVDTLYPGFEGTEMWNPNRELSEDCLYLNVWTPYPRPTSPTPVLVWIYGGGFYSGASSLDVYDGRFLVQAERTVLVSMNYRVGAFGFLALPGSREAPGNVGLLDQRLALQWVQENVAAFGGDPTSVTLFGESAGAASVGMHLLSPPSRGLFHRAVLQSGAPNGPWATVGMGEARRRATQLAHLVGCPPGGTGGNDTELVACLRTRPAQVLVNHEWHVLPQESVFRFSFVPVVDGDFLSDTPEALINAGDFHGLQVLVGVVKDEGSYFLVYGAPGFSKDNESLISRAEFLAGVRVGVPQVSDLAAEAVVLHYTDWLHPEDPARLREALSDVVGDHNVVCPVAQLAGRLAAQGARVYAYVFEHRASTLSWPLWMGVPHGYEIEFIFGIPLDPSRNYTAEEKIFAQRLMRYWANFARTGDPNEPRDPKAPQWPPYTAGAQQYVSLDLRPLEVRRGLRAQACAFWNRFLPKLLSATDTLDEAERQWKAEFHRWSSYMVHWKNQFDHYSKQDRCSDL
assay-method-text: biochemical
Assay type: biochemical
assay-context: IS = Ki(BChE)/Ki(AChE); IS > 1 selective to AChE

[
  {
    "compound": "FC(F)(F)c1ccc2c(NCCCNCC34CC5CC(CC(C5)C3)C4)ccnc2c1",
    "IS": 2.4
  },
  {
    "compound": "Clc1ccc2c(Nc3cccc4c(NCCC56CC7CC(CC(C7)C5)C6)cccc34)ccnc2c1",
    "IS": 5.8
  },
  {
    "compound": "FC(F)(F)c1ccc2c(NCCNCC34CC5CC(CC(C5)C3)C4)ccnc2c1",
    "IS": 2.9
  },
  {
    "compound": "CC(CCNCCC12CC3CC(CC(C3)C1)C2)Nc1ccnc2cc(Cl)ccc12 (stereo not drawn)",
    "IS": 0.1
  },
  {
    "compound": "Clc1ccc2c(NCCNCCC34CC5CC(CC(C5)C3)C4)ccnc2c1",
    "IS": 0.6
  },
  {
    "compound": "Clc1ccc2c(Nc3cccc(NCC45CC6CC(CC(C6)C4)C5)c3)ccnc2c1",
    "IS": 0.6
  }
]

###

assay-method-text: Reverse-phase thin-layer chromatographic lipophilicity (RF, RM0)
Type: physicochemical
assay-context: RP-18 silica; VII = 50%AC/45%H2O/5%HCl
Let's look at some compounds and their measured RF, Acetone/Water/Hydrochloric acid (conc.), mobile phase VII.
measured-attribute: RF, Acetone/Water/Hydrochloric acid (conc.), mobile phase VII

[
  {
    "compound": "FC(F)(F)c1ccc2c(NCCNCC34CC5CC(CC(C5)C3)C4)ccnc2c1 [Compound 6]",
    "obs-value": 0.32
  },
  {
    "compound": "CC(CCNCC12CC3CC(CC(C3)C1)C2)Nc1ccnc2cc(C(F)(F)F)ccc12 (stereo not drawn) [Compound 13]",
    "obs-value": 0.3
  },
  {
    "compound": "Clc1ccc2c(NCCNCC34CC5CC(CC(C5)C3)C4)ccnc2c1 [Compound 1]",
    "obs-value": 0.36
  },
  {
    "compound": "Clc1ccc2c(NCCCN3CCN(CCCNCC45CC6CC(CC(C6)C4)C5)CC3)ccnc2c1 [Compound 22]",
    "obs-value": 0.43
  },
  {
    "compound": "Clc1ccc2c(NCCCCCN(CCC34CC5CC(CC(C5)C3)C4)CCC34CC5CC(CC(C5)C3)C4)ccnc2c1 [Compound 11]",
    "obs-value": 0
  },
  {
    "compound": "Clc1ccc2c(NCCN(CCC34CC5CC(CC(C5)C3)C4)CCC34CC5CC(CC(C5)C3)C4)ccnc2c1 [Compound 9]",
    "obs-value": 0
  },
  {
    "compound": "Clc1ccc2c(N3CCN(CCC45CC6CC(CC(C6)C4)C5)CC3)ccnc2c1 [Compound 21]",
    "obs-value": 0.35
  },
  {
    "compound": "Clc1ccc2c(N3CCN(CC45CC6CC(CC(C6)C4)C5)CC3)ccnc2c1 [Compound 20]",
    "obs-value": 0.42
  },
  {
    "compound": "CC(CCNCCC12CC3CC(CC(C3)C1)C2)Nc1ccnc2ccccc12 (stereo not drawn) [Compound 16]",
    "obs-value": 0.33
  },
  {
    "compound": "FC(F)(F)c1ccc2c(NCCCNCC34CC5CC(CC(C5)C3)C4)ccnc2c1 [Compound 7]",
    "obs-value": 0.32
  },
  {
    "compound": "Clc1ccc2c(NCCCNCC34CC5CC(CC(C5)C3)C4)ccnc2c1 [Compound 2]",
    "obs-value": 0.35
  },
  {
    "compound": "Clc1ccc2c(Nc3ccc(NCC45CC6CC(CC(C6)C4)C5)cc3)ccnc2c1 [Compound 17]",
    "obs-value": 0.33
  },
  {
    "compound": "Clc1ccc2c(NCCCN3CCN(CCCNCCC45CC6CC(CC(C6)C4)C5)CC3)ccnc2c1 [Compound 23]",
    "obs-value": 0.35
  },
  {
    "compound": "CC(CCNCC12CC3CC(CC(C3)C1)C2)Nc1ccnc2cc(Cl)ccc12 (stereo not drawn) [Compound 12]",
    "obs-value": 0.34
  },
  {
    "compound": "CC(CCNCCC12CC3CC(CC(C3)C1)C2)Nc1ccnc2cc(Cl)ccc12 (stereo not drawn) [Compound 14]",
    "obs-value": 0.25
  },
  {
    "compound": "Clc1ccc2c(NCCCCN(CCC34CC5CC(CC(C5)C3)C4)CCC34CC5CC(CC(C5)C3)C4)ccnc2c1 [Compound 10]",
    "obs-value": 0
  },
  {
    "compound": "Clc1ccc2c(NCCCCCCNCC34CC5CC(CC(C5)C3)C4)ccnc2c1 [Compound 4]",
    "obs-value": 0.33
  },
  {
    "compound": "Clc1ccc2c(Nc3cccc(NCC45CC6CC(CC(C6)C4)C5)c3)ccnc2c1 [Compound 18]",
    "obs-value": 0.3
  }
]

###

Let's look at some molecules and their measured pKi.
target-of-assay: purified human BChE (Homo sapiens)
Construct: possibly also a gift of Dr Florian Nachon (the sentence is ambiguous)
assay-method-text: biochemical
Format: biochemical
assay-context: ± standard error; 25 °C, ATCh substrate; read-out: Ki BChE
pKi: −log10 of the molar value.

[
  {
    "molecule": "Clc1ccc2c(NCCCN3CCN(CCCNCC45CC6CC(CC(C6)C4)C5)CC3)ccnc2c1",
    "pKi": 5.48
  },
  {
    "molecule": "Clc1ccc2c(NCCCCNCC34CC5CC(CC(C5)C3)C4)ccnc2c1",
    "pKi": 6.04
  },
  {
    "molecule": "Clc1ccc2c(N3CCN(CC45CC6CC(CC(C6)C4)C5)CC3)ccnc2c1",
    "pKi": 4.60
  },
  {
    "molecule": "Clc1ccc2c(Nc3cccc(NCC45CC6CC(CC(C6)C4)C5)c3)ccnc2c1",
    "pKi": 5.26
  },
  {
    "molecule": "Clc1ccc2c(NCCCCCCNCC34CC5CC(CC(C5)C3)C4)ccnc2c1",
    "pKi": 6.12
  },
  {
    "molecule": "Clc1ccc2c(N3CCN(CCC45CC6CC(CC(C6)C4)C5)CC3)ccnc2c1",
    "pKi": 5.25
  },
  {
    "molecule": "CC(CCNCC12CC3CC(CC(C3)C1)C2)Nc1ccnc2cc(C(F)(F)F)ccc12 (stereo not shown)",
    "pKi": 5.74
  },
  {
    "molecule": "FC(F)(F)c1ccc2c(NCCCNCC34CC5CC(CC(C5)C3)C4)ccnc2c1",
    "pKi": 5.59
  },
  {
    "molecule": "CC(CCNCC12CC3CC(CC(C3)C1)C2)Nc1ccnc2ccccc12 (stereo not shown)",
    "pKi": 6.19
  },
  {
    "molecule": "Clc1ccc2c(NCCNCC34CC5CC(CC(C5)C3)C4)ccnc2c1",
    "pKi": 5.68
  },
  {
    "molecule": "Clc1ccc2c(NCCN(CCC34CC5CC(CC(C5)C3)C4)CCC34CC5CC(CC(C5)C3)C4)ccnc2c1",
    "pKi": 5.82
  },
  {
    "molecule": "Clc1ccc2c(Nc3cccc4c(NCCC56CC7CC(CC(C7)C5)C6)cccc34)ccnc2c1",
    "pKi": 4.66
  },
  {
    "molecule": "Clc1ccc2c(Nc3ccc(NCC45CC6CC(CC(C6)C4)C5)cc3)ccnc2c1",
    "pKi": 5.60
  }
]
